Catalogue of EAE Incidence values
system: Lewis rats; experiment: Induction of EAE in Lewis rats by immunization with peptide in CFA; type: in vivo, rat; conditions: Incidence at 50 μg, Lewis rats; Table 3

biosequence	target	EAE Incidence
YGSLPQKSQRTQDENPV (listed as Rattus sp.) [rat68-86, rat myelin basic protein peptide 68-86, reference compound]	Lewis rats	5/5
YGSLPQKSORTQAENPV (YGSLPQKSQRSQAENPV; listed as Rattus sp.) [MBP D>A, reference compound]	Lewis rats	0/10
RFPNHYGCLLPRNPRTEDQN (listed as Chlamydia pneumoniae) [Cpn0483, 20-mer peptide near the C-terminus of C. pneumoniae protein Cpn0483]	Lewis rats	5/5
RFPNHYGCLLPRNPRTEAQN (listed as Chlamydia pneumoniae) [Cpn D>A]	Lewis rats	9/10

----------
Catalogue of EAE Incidence (# affected animals/total # animals injected) values
tested on: Lewis rats; assay: Induction of EAE in Lewis rats by immunization with peptide in CFA; type: in vivo, rat; conditions: Table IV; dose not given
readout_kind: EAE Incidence (# affected animals/total # animals injected)

biosequence	target	measured
NHYGCLLPRNPRTED (listed as Chlamydia pneumoniae) [N3/C2 truncated]	Lewis rats	0/5
PNHYGCLLPRNPRTEDQN (listed as Chlamydia pneumoniae) [N2—truncated]	Lewis rats	0/5
YGCLLPRNPRTEDQN (listed as Chlamydia pneumoniae) [N5—truncated]	Lewis rats	0/5
YGSLPQKSQRTQDENPV (listed as Rattus sp.) [rat68-86, rat myelin basic protein peptide 68-86, reference compound]	Lewis rats	5/5
RFPNHYGCLLPRNPRTEAQN (listed as Chlamydia pneumoniae) [Cpn D>A]	Lewis rats	9/10
HYGCLLPRNPRTED (listed as Chlamydia pneumoniae) [N4/C2 truncated]	Lewis rats	0/5
RFPNHYGSLLPRNPRTEDQN (listed as Chlamydia pneumoniae) [Cpn0483 C > S]	Lewis rats	8/10
RFPNHYGCLLPRNPRTEDQN (listed as Chlamydia pneumoniae) [Cpn0483, 20-mer peptide near the C-terminus of C. pneumoniae protein Cpn0483]	Lewis rats	5/5
RFPNHYGCLLPRNPR (listed as Chlamydia pneumoniae) [C5—truncated]	Lewis rats	0/5
